# assay_conditions: in n-butanol, 303.15 K
experimental_readout: solubility (mole fraction)
Lab note: record just the number, no unit beside it.

Lookup: Given the compound O=C(/C=C/c1cn(-c2ccccc2)nc1-c1ccccc1Cl)c1nc2ccccc2[nH]1 , what is its reported solubility (mole fraction)?
Found: 0.00033

Lookup: What value of solubility (mole fraction) has been reported for the following compound? O=C(/C=C/c1cn(-c2ccccc2)nc1-c1ccc(Cl)cc1)c1nc2ccccc2[nH]1
Found: 0.000175

Lookup: I am curious: what solubility (mole fraction) value has been reported for O=C(/C=C/c1cn(-c2ccccc2)nc1-c1ccccc1)c1nc2ccccc2[nH]1 ?
Found: 0.000275

Lookup: If you can, please state the reported solubility (mole fraction) value of COc1cccc(-c2nn(-c3ccccc3)cc2/C=C/C(=O)c2nc3ccccc3[nH]2)c1 .
Found: 0.000185

Lookup: Fill in the blank: the reported solubility (mole fraction) of COc1ccc(-c2nn(-c3ccccc3)cc2/C=C/C(=O)c2nc3ccccc3[nH]2)cc1OC is ____.
Found: 0.000209

Lookup: What value of measured solubility (mole fraction) is listed for O=C(/C=C/c1cn(-c2ccccc2)nc1-c1cccc([N+](=O)[O-])c1)c1nc2ccccc2[nH]1 ?
Found: 0.000236

Lookup: Quick one: solubility (mole fraction) for COc1ccc(-c2nn(-c3ccccc3)cc2/C=C/C(=O)c2nc3ccccc3[nH]2)cc1 ?
Found: 0.00136

----------
# assay_conditions: in ethyl acetate, 303.15 K
Assignment: determine reported solubility (mole fraction) for the given molecules.
Give your answer as a number; write no unit.

Lookup: Query: solubility (mole fraction); subject: COc1ccc(-c2nn(-c3ccccc3)cc2/C=C/C(=O)c2nc3ccccc3[nH]2)cc1OC
Found: 0.000425

Lookup: Recorded solubility (mole fraction) of O=C(/C=C/c1cn(-c2ccccc2)nc1-c1cccc([N+](=O)[O-])c1)c1nc2ccccc2[nH]1 , please.
Found: 0.00149

Lookup: # get_value(readout='solubility (mole fraction)', item= COc1ccc(-c2nn(-c3ccccc3)cc2/C=C/C(=O)c2nc3ccccc3[nH]2)cc1 )
Found: 0.000826

Lookup: Form field: reported solubility (mole fraction) of O=C(/C=C/c1cn(-c2ccccc2)nc1-c1ccc(Cl)cc1)c1nc2ccccc2[nH]1
Found: 0.00029

Lookup: Request the reported solubility (mole fraction) associated with COc1cccc(-c2nn(-c3ccccc3)cc2/C=C/C(=O)c2nc3ccccc3[nH]2)c1
Found: 0.000256

Lookup: Dear colleague, I am looking for the recorded solubility (mole fraction) of the following molecule: O=C(/C=C/c1cn(-c2ccccc2)nc1-c1ccccc1Cl)c1nc2ccccc2[nH]1
Found: 0.00095

Lookup: What value of measured solubility (mole fraction) is listed for O=C(/C=C/c1cn(-c2ccccc2)nc1-c1ccccc1)c1nc2ccccc2[nH]1 ?
Found: 0.000195

----------
# assay_conditions: in methanol, 313.15 K
What solubility (mole fraction) was measured for each of the following?
I'd appreciate a reply containing only the number, no unit.

Lookup: Item under review: COc1cccc(-c2nn(-c3ccccc3)cc2/C=C/C(=O)c2nc3ccccc3[nH]2)c1 . Reported solubility (mole fraction)?
Found: 4.12e-05

Lookup: // lookup solubility (mole fraction) for O=C(/C=C/c1cn(-c2ccccc2)nc1-c1ccccc1)c1nc2ccccc2[nH]1
Found: 8.83e-05

Lookup: For the compound COc1ccc(-c2nn(-c3ccccc3)cc2/C=C/C(=O)c2nc3ccccc3[nH]2)cc1OC , what solubility (mole fraction) is on record?
Found: 4.47e-05

Lookup: So what's the measured solubility (mole fraction) for this one? O=C(/C=C/c1cn(-c2ccccc2)nc1-c1ccccc1Cl)c1nc2ccccc2[nH]1
Found: 0.000149

Lookup: Would you kindly share the measured solubility (mole fraction) for O=C(/C=C/c1cn(-c2ccccc2)nc1-c1cccc([N+](=O)[O-])c1)c1nc2ccccc2[nH]1 ?
Found: 5.9e-05

Lookup: Which solubility (mole fraction) is listed for COc1ccc(-c2nn(-c3ccccc3)cc2/C=C/C(=O)c2nc3ccccc3[nH]2)cc1 ?
Found: 0.00016

Lookup: Given the entry O=C(/C=C/c1cn(-c2ccccc2)nc1-c1ccc(Cl)cc1)c1nc2ccccc2[nH]1 , report its measured solubility (mole fraction).
Found: 7.9e-05
